System: SK-MEL-5 melanoma
measurement_protocol: NCI tumour cell line growth inhibition, 48 h
metric: TGI

In the examples that follow, each entry is paired with its recorded TGI.
CCN1CCC(CC(=O)Nc2n[nH]c3nc(-c4cccs4)c(Br)cc23)CC1 | > 14.6 µM
Cc1n(CC(=O)c2ccccc2)nc2sc(N)n[n+]12 | > 100 µM
C=C1C(=O)O[C@H]2C[C@@H]1CCC1(C)OC1CC/C(C)=C/CC[C@H]2C (stereo not given in full) | 31.5 µM
Cn1ccc(C(=O)NCCCCCNC(=O)c2ccn(C)c(=O)c2O)c(O)c1=O | > 100 µM
Nc1ccc(-n2c(=O)oc3ccc(Cl)cc3c2=O)c(Cl)c1 | 0.136 µM
CN(C)S(=O)(=O)c1ccc(Nc2ccc(O)c3c2C(=O)c2c([N+](=O)[O-])ccc(O)c2C3=O)cc1 | > 100 µM
NC(=O)NCCSC1CCCCC1O (stereo not given) | > 100 µM
CC(C)(C)OC(=O)NCC(=O)N1CCCN(C(=O)CNC(=O)OC(C)(C)C)CC1 | > 100 µM
Cc1ccccc1C(C(=O)NC1CCCCC1)N(C(=O)Cn1ccnc1C)c1cccc(F)c1 (stereo not given) | > 100 µM

Now take the following molecule into account.
TGI lookup needed for COc1ccc(C2=C(c3cc(OC)c(OC)c(OC)c3)C(=O)OC2)cc1OC , thanks.
1.5 µM

----------
System: A498 renal
measurement_protocol: NCI tumour cell line growth inhibition, 48 h
Can you tell me TGI for the items I'm about to list?
Give bare numbers, in µM.

In the examples that follow, each entry is paired with its recorded TGI.
CNCCOC(=O)/C=C1/CCC2C(C(O)CC3C(C)(C(=O)OC)CCCC23C)C1C (stereo not given) | 0.0585
C=C1C(=O)O[C@H]2C[C@@H]1CCC1(C)OC1CC/C(C)=C/CC[C@H]2C (stereo not given in full) | 33.6
N=C(N)c1ccc(-c2ccc(-c3ccc(F)cc3)o2)o1 | 5.95
NC1=C(Cl)C(=O)c2ccccc2C1=O | 35.7

Count: 7. Required value per item: TGI.
1. COc1ccc(-c2csc3c2-n2cccc2C3=O)cc1O
2. CC(C)CCC[C@@H](C)[C@H]1CCC2C3=CCC4C(=O)C=CC(=O)C4C3CC[C@@]21C (stereo not given in full)
3. CC1(C)Cc2c(Br)c(Br)c(Br)c(OCC(O)CN3CCOCC3)c2O1 (stereo not given)
4. Cc1c(F)c(N)c2c(=O)cc(-c3ccc(NC(=O)C(N)CCCN=C(N)N)c(F)c3)oc2c1F (stereo not given)
5. Cc1ccc2[nH]c(C(=O)NN3C(=O)C(C)SC34CCCCC4C)c(-c3ccccc3)c2c1 (stereo not given)
6. C[C@H](CCC1=NCCN1)[C@H]1CC[C@H]2[C@@H]3CC[C@@H]4C[C@H](O)CC[C@]4(C)[C@H]3C[C@H](O)[C@]12C
7. O=C1OCC2=C1C(c1cccc(C(F)(F)F)c1)c1cc3c(cc1N2CCO)CCC3 (stereo not given)

[13.5, 1.14, 26.4, 0.281, 32, 65.1, 0.397]

----------
System: DU-145 prostate
measurement_protocol: NCI tumour cell line growth inhibition, 48 h
metric: GI50

In the examples that follow, each entry is paired with its recorded GI50.
OCc1ccc(Oc2c3ccccc3nc3occc23)cc1 | 33.6 µM
COc1ccc(/C=C\c2cc(OC)c(OC)c(OC)c2)cc1OCC(=O)Nc1nc2ccc(OC(F)(F)F)cc2s1 | 4.11 µM
CCN1CCC(CC(=O)Nc2n[nH]c3nc(-c4cccs4)c(Br)cc23)CC1 | 8.5 µM
COc1ccc(C2=C(c3cc(OC)c(OC)c(OC)c3)C(=O)OC2)cc1OC | 0.821 µM
COC(=O)[C@@H]1CCCN1C(=O)[C@H]1CCCN1C(=O)[C@@H](Cc1c[nH]c2ccccc12)NC(=S)Nc1cc(C(F)(F)F)cc(C(F)(F)F)c1 | 2.24 µM
COc1ccc2c(c1)[C@@]1(C)CCC3c4ccc(O)cc4CCC3C1C2 (some centres undefined) | 17.6 µM
CO/C(=N\N=C\c1cccc(C(F)(F)F)c1)c1ccncc1 | 33.6 µM
O=[N+]([O-])/C=C/c1ccc([N+](=O)[O-])cc1 | 1.96 µM

Now take the following molecule into account.
GI50 lookup needed for COc1cc(OC)cc(-c2cncn2-c2ccc(-c3nc4cc(OC)cc(OC)c4s3)cc2)c1 , thanks.
> 100 µM
